- study_system: Chromo domain-containing protein 1 (Saccharomyces cerevisiae (strain ATCC 204508 / S288c) (Baker's yeast)) (UniProt P32657)
- Sequence (P32657 whole entry, the tested form may be a part): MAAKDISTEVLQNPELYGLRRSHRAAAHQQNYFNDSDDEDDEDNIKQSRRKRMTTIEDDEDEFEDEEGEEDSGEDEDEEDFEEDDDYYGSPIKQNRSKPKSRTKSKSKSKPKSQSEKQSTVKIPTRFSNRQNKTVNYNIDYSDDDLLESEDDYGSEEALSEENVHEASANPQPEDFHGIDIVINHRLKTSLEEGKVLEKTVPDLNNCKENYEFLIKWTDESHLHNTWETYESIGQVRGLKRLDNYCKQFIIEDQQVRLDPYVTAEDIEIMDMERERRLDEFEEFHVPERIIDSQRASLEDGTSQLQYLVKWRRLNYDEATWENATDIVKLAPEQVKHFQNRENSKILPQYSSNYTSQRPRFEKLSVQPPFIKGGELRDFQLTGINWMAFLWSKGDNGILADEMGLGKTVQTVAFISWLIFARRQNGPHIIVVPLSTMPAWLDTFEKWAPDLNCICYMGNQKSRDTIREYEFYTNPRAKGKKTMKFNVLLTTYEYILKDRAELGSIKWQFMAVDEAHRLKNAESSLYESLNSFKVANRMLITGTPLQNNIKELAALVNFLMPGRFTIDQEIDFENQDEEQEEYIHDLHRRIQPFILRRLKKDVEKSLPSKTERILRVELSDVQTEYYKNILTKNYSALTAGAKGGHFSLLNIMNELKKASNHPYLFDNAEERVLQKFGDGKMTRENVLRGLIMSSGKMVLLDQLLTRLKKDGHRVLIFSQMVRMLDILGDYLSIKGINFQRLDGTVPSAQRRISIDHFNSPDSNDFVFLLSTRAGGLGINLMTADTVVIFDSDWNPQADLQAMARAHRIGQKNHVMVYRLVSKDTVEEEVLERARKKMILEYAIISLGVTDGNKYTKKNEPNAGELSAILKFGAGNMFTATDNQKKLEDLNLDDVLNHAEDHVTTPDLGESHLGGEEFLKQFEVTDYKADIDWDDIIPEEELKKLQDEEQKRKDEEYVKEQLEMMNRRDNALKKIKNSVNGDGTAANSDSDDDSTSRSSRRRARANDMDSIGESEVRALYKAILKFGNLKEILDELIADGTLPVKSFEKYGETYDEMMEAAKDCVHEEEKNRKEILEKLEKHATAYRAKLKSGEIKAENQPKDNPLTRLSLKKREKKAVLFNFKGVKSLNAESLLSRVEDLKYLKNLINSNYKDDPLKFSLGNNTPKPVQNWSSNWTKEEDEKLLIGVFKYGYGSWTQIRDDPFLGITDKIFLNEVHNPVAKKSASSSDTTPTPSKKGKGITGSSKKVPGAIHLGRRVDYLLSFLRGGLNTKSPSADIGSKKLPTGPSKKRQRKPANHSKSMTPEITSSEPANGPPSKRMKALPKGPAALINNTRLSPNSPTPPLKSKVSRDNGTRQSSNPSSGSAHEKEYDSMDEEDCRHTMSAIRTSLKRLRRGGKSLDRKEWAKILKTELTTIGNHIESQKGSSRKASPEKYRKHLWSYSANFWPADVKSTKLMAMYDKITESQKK
- experiment_notes: ScCHD-1 Enzyme Inhibition Assay
- Format: functional
- Design: scale not given: in the data most compounds retested in dose-response had high values
- setup_conditions: 30 µM
Kindly state Percent Effect for each of the entries shown.
Answers are plain numbers, in %.

Please look at the items below and tell me Percent Effect for each one, in order.
1. CC(=O)NC1CCCN(C(=O)NCc2ccc(-c3ccn[nH]3)cc2)C1 (stereo not given)
2. O=C(NCc1ccccc1-n1cccn1)N1CCN2CCCCC2C1 (stereo not given)
3. Cc1ncccc1NC(=O)C1=NOC2(CCN(Cc3nccs3)C2)C1 (stereo not given)
4. CO[C@@H]1CC[C@H]2[C@H]1OCCN2C(=O)COc1ccc(F)cc1
5. Cc1nn(C)c2c(NCc3ccccc3F)nc(C3CC3)nc12
6. CC(C)(C)c1ccc(C2(C(=O)NCCCS(C)(=O)=O)CC2)cc1
7. Cc1cc(NCc2cc3n(n2)CCCN(C(=O)N(C)C)C3)ncn1

-8.05
-8
5.53
0.177
-3.61
-0.462
0.382

Would you be so kind as to report Percent Effect for each listed record?
1. Cn1ccc(CN2CCC(NC(=O)Cc3ccccc3)CC2)cc1=O
2. Cn1c(CNc2c(F)cccc2-n2cccn2)cc(=O)n(C)c1=O
3. Cn1cnnc1CNC(=O)Nc1cc(C(F)(F)F)c[nH]c1=O
4. CC(C)Cc1noc(CN(C)C(=O)C2COc3ccccc3C2)n1 (stereo not given)
5. Cc1nccn1C1CCCN(C(=O)c2ccc3c(c2)NC(=O)CO3)C1 (stereo not given)
6. CN(C)CCN1CCCC12CCN(C(=O)c1cccn1C)CC2

-3.86
-0.228
-7.82
0.431
-9.9
4.29

// for each compound below, give its Percent Effect
1. CO[C@H]1CCN(Cc2cccc(C)n2)[C@@H]2CN(Cc3cccnc3)C[C@H]12
2. CC(C)NC(=O)C1CN(C(=O)Nc2ccccc2)CC12CCOCC2 (stereo not given)

-8.06
-3.13
